system: Wolbachia pipientis; test: Anti-Wolbachia Cell-Based Screen; type: functional; set-up: scale not given: in the data most compounds retested in dose-response had high values; conditions: 5 µM
Among all 48,000 compounds or so, about 13,000 (27%) showed an effect of 50% or more. The list shows a part of the results.
# note: exactly 20% is not below, so it is NO; use YES for Percent Effect strictly under it

Q: # strict comparison: is reported Percent Effect < 20%? input = Cc1nc(CC(=O)N2CCN(c3ccc(N(C)C)cc3)CC2)cs1
Ans: YES

Q: # strict comparison: is reported Percent Effect < 20%? input = CCSc1ccc(C(=O)N2CCCC2C(=O)N2CCOCC2)cn1 (stereo unspecified)
Ans: NO

Q: # strict comparison: is reported Percent Effect < 20%? input = CC(C)Cc1cc(C(=O)N2CCC[C@H]2C(=O)N2CCOCC2)on1
Ans: YES

Q: # strict comparison: is reported Percent Effect < 20%? input = CNc1cncc(C2CCN(C(=O)c3coc(C)n3)CC2)n1
Ans: NO

Q: # strict comparison: is reported Percent Effect < 20%? input = CCCNC(=O)N1CCC(Oc2cc(C)ccc2F)(C(=O)O)CC1
Ans: YES

Q: # strict comparison: is reported Percent Effect < 20%? input = CCSc1ccc(C(=O)N2CCCCC2C(=O)NC(C)(C)C)cn1 (stereo unspecified)
Ans: NO

Q: # strict comparison: is reported Percent Effect < 20%? input = Cc1nc(C)c(CC(=O)N2C[C@@H](C(=O)O)[C@H](c3ccccc3C)C2)s1
Ans: YES

Q: # strict comparison: is reported Percent Effect < 20%? input = Cc1nc(C)c(CC(=O)N2CCC(c3ccn4nccc4n3)CC2)s1
Ans: NO

Q: # strict comparison: is reported Percent Effect < 20%? input = Cc1ccc(CNC(=O)C2CCCCN2C(=O)OC(C)(C)C)cn1 (stereo unspecified)
Ans: YES

Q: # strict comparison: is reported Percent Effect < 20%? input = Cc1nc(CC(=O)N2CCC(Nc3cccnn3)CC2)cs1
Ans: YES

* * *

Exercise: for every item that follows, state its recorded Percent Effect.
system: Wolbachia pipientis; assay: Anti-Wolbachia Cell-Based Screen; type: functional; parameters: scale not given: in the data most compounds retested in dose-response had high values; conditions: 5 µM
The campaign covered roughly 48,000 compounds. About 13,000 (27%) showed an effect of 50% or more. This is one part of the list.
Give your result in % as a bare value.

Q: Could you tell me which Percent Effect is on file for CC(C)COCCCNC(=O)NC(C)c1ccc(-n2cncn2)cc1 (centres undefined) ?
Ans: -8.242

Q: Could you tell me which Percent Effect is on file for O=C(c1cc(C2CCCCC2)no1)N1C[C@H]2C[C@H](O)C[C@H]2C1 ?
Ans: 95.88

Q: Could you tell me which Percent Effect is on file for NC1CCCCN(Cc2cc(C3CCCCC3)no2)C1 (centres undefined) ?
Ans: 4.436

Q: Could you tell me which Percent Effect is on file for CS(=O)(=O)CC(=O)N1C[C@@H]2COC[C@]2(c2nnc(C3CC3)o2)C1 ?
Ans: -25.79

* * *

test system: Wolbachia pipientis; assay: Anti-Wolbachia Cell-Based Screen; format: functional; set-up: scale not given: in the data most compounds retested in dose-response had high values; details: 5 µM
Out of some 48,000 compounds screened, about 13,000 (27%) showed an effect of 50% or more. Some of the results follow.
endpoint.name: Percent Effect (%)
Give your result in % as a bare value.

Q: Could you tell me which Percent Effect is on file for CC(C)(O)CCc1cccc(C(=O)NCCC2=CSC3=NCCCN23)c1 ?
Ans: 99.07

Q: Could you tell me which Percent Effect is on file for CC(=O)N1CCOC(CNC(=O)c2cccc(CCC(C)(C)O)c2)C1 (stereo not drawn) ?
Ans: 13.88

Q: Could you tell me which Percent Effect is on file for CCC(=O)Nc1cccc(C(=O)NCCC2=CSC3=NCCCN23)c1 ?
Ans: 108.7

* * *

Exercise: for every item that follows, state its recorded Percent Effect.
system: Wolbachia pipientis; assay: Anti-Wolbachia Cell-Based Screen; assay type: functional; parameters: scale not given: in the data most compounds retested in dose-response had high values; conditions: 5 µM
In all, about 48,000 compounds went through this assay and about 13,000 (27%) showed an effect of 50% or more. Some of the results follow.
Put your answer as a value accompanied by its unit after it.

Q: Could you tell me which Percent Effect is on file for Cc1cc(CN2CCC3(CC2)COC(COCC2CC2)C3)no1.O=C(O)C(F)(F)F (stereo not drawn) ?
Ans: 95.48%

Q: Could you tell me which Percent Effect is on file for Cc1noc(C)c1CN1CCC2(CC1)CC(Oc1cccnc1)C2.O=C(O)C(F)(F)F.O=C(O)C(F)(F)F ?
Ans: 7.225%

Q: Could you tell me which Percent Effect is on file for FC(F)(F)C1CN(Cc2cnc3c(-c4ccccc4)cnn3c2)CCO1 (stereo not drawn) ?
Ans: 27.88%

Q: Could you tell me which Percent Effect is on file for O=C(CC1CCN(c2cccnn2)CC1)Nc1cccnc1 ?
Ans: 90.02%

Q: Could you tell me which Percent Effect is on file for CCN(CC)CCn1cnc(-c2ccccc2)c1-c1ncc[nH]1 ?
Ans: -14.65%

Q: Could you tell me which Percent Effect is on file for CN(CC(=O)Nc1nncs1)CC1CCCN1c1cccnn1 (stereo not drawn) ?
Ans: -0.3075%

Q: Could you tell me which Percent Effect is on file for O=C([C@@H]1Cc2[nH]cnc2CN1Cc1cc2ccccc2o1)N1CCCC1 ?
Ans: 9.512%

Q: Could you tell me which Percent Effect is on file for CN1C(=O)[C@H]2CC[C@@H]1CN(Cc1cccc(OCc3ccccn3)c1)C2 ?
Ans: -0.7428%

Q: Could you tell me which Percent Effect is on file for O=C(CC1CCN(c2cccnn2)CC1)Nc1nncs1 ?
Ans: 96.76%

Q: Could you tell me which Percent Effect is on file for CO[C@@H]1CC[C@H]2[C@H]1OCCN2Cc1ccc(F)cc1.O=C(O)C(F)(F)F ?
Ans: 109.6%

Q: Could you tell me which Percent Effect is on file for CN1CCC(N(C)C[C@H]2CC[C@@H](Cc3ccc4c(cnn4C)c3)O2)CC1 ?
Ans: -7.23%

Q: Could you tell me which Percent Effect is on file for Cc1noc(C)c1CN1CCC2(CC1)C(c1ccccc1)CC(=O)N2C.O=C(O)C(F)(F)F (stereo not drawn) ?
Ans: 90.48%

Q: Could you tell me which Percent Effect is on file for Cc1cccc(CN2CCC3(CCCN(C(=O)c4ccsc4)C3)C2=O)n1.O=C(O)C(F)(F)F (stereo not drawn) ?
Ans: -5.258%

Q: Could you tell me which Percent Effect is on file for Cc1ncsc1CN1C[C@@H]2CCCO[C@@H]2[C@H](N(C)C(C)C)C1.O=C(O)C(F)(F)F.O=C(O)C(F)(F)F ?
Ans: -15.14%

Q: Could you tell me which Percent Effect is on file for COCC(=O)N1CCC(C(=O)N(C)CCCc2nccn2C)CC1 ?
Ans: -11.58%

Q: Could you tell me which Percent Effect is on file for Cc1cnc(C(=O)N2CCC3(CCN(Cc4ccccn4)C3=O)C2)cn1.O=C(O)C(F)(F)F (stereo not drawn) ?
Ans: 102.4%

Q: Could you tell me which Percent Effect is on file for O=C(O)C(F)(F)F.O=C(c1ccsc1)N1CCC2(CCN(Cc3ccccn3)C2=O)C1 (stereo not drawn) ?
Ans: 124%

Q: Could you tell me which Percent Effect is on file for O=C1NCCN(Cc2ccccc2)C1CC(=O)N1CCc2n[nH]cc2C1 (stereo not drawn) ?
Ans: -21.59%

Q: Could you tell me which Percent Effect is on file for Cn1cc(C2CC(=O)NC23CCN(Cc2nccs2)CC3)cn1 (stereo not drawn) ?
Ans: 86.17%

Q: Could you tell me which Percent Effect is on file for CC(=O)N1CCC2(CC1)COC(COCc1ccccn1)C2.O=C(O)C(F)(F)F (stereo not drawn) ?
Ans: -3.959%

Q: Could you tell me which Percent Effect is on file for Cc1ccc(C(=O)N2CCC3(CCN(Cc4ccccn4)C3=O)C2)cn1 (stereo not drawn) ?
Ans: 76.19%

Q: Could you tell me which Percent Effect is on file for O=C(CCC(=O)N1CCOCC1c1ccccc1)c1cccs1 (stereo not drawn) ?
Ans: -0.4955%

Q: Could you tell me which Percent Effect is on file for COc1ncccc1C(=O)N1CCC(c2nc3c(C)cccc3[nH]2)CC1 ?
Ans: -11.64%
